B1: glmS ribozyme (parent)
chain: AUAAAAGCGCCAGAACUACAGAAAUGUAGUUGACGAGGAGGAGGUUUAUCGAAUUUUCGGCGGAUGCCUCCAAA

- Variants of: B1
- Run description: self-cleavage kobs at 2500 uM GlcN6P; higher = faster cleavage; RNA array
- Test parameters: with glucosamine-6-phosphate
Variants at the floor of the assay were thinned out.
Measure name: self-cleavage kobs at 2500 uM GlcN6P (s⁻¹)

{"Variant designation": "G7C A36G A39G C67U", "Measure name": "self-cleavage kobs at 2500 uM GlcN6P", "Measurement unit": "s⁻¹", "Comparative sign": "<", "Measured value": "1e-05"}
{"Variant designation": "A6G G40U A52G A53U", "Measure name": "self-cleavage kobs at 2500 uM GlcN6P", "Measurement unit": "s⁻¹", "Comparative sign": "<", "Measured value": "1e-05"}
{"Variant designation": "C16U U46C C61G", "Measure name": "self-cleavage kobs at 2500 uM GlcN6P", "Measurement unit": "s⁻¹", "Comparative sign": "<", "Measured value": "1e-05"}
{"Variant designation": "A15C A64C C68U", "Measure name": "self-cleavage kobs at 2500 uM GlcN6P", "Measurement unit": "s⁻¹", "Comparative sign": "<", "Measured value": "1e-05"}
{"Variant designation": "G35C U54A", "Measure name": "self-cleavage kobs at 2500 uM GlcN6P", "Measurement unit": "s⁻¹", "Comparative sign": "<", "Measured value": "1e-05"}
{"Variant designation": "G29U C34A", "Measure name": "self-cleavage kobs at 2500 uM GlcN6P", "Measurement unit": "s⁻¹", "Comparative sign": "<", "Measured value": "1e-05"}
{"Variant designation": "G7A G9A A14C G44A", "Measure name": "self-cleavage kobs at 2500 uM GlcN6P", "Measurement unit": "s⁻¹", "Comparative sign": "<", "Measured value": "1e-05"}
{"Variant designation": "U30A U56C", "Measure name": "self-cleavage kobs at 2500 uM GlcN6P", "Measurement unit": "s⁻¹", "Comparative sign": "=", "Measured value": 0.000369}
{"Variant designation": "G38C A39U A53G U65C", "Measure name": "self-cleavage kobs at 2500 uM GlcN6P", "Measurement unit": "s⁻¹", "Comparative sign": "<", "Measured value": "1e-05"}
{"Variant designation": "A52C U54G G63A", "Measure name": "self-cleavage kobs at 2500 uM GlcN6P", "Measurement unit": "s⁻¹", "Comparative sign": "<", "Measured value": "1e-05"}
{"Variant designation": "G40A A48C U57A C61G", "Measure name": "self-cleavage kobs at 2500 uM GlcN6P", "Measurement unit": "s⁻¹", "Comparative sign": "<", "Measured value": "1e-05"}
{"Variant designation": "G13C G44C", "Measure name": "self-cleavage kobs at 2500 uM GlcN6P", "Measurement unit": "s⁻¹", "Comparative sign": "<", "Measured value": "1e-05"}
{"Variant designation": "G35A C58A", "Measure name": "self-cleavage kobs at 2500 uM GlcN6P", "Measurement unit": "s⁻¹", "Comparative sign": "<", "Measured value": "1e-05"}
{"Variant designation": "C10G G44U C71A", "Measure name": "self-cleavage kobs at 2500 uM GlcN6P", "Measurement unit": "s⁻¹", "Comparative sign": "<", "Measured value": "1e-05"}
{"Variant designation": "G44U A53C C58U C71U", "Measure name": "self-cleavage kobs at 2500 uM GlcN6P", "Measurement unit": "s⁻¹", "Comparative sign": "<", "Measured value": "1e-05"}
{"Variant designation": "G13U A64G U65G", "Measure name": "self-cleavage kobs at 2500 uM GlcN6P", "Measurement unit": "s⁻¹", "Comparative sign": "=", "Measured value": "5.07e-05"}
{"Variant designation": "A6G A42G", "Measure name": "self-cleavage kobs at 2500 uM GlcN6P", "Measurement unit": "s⁻¹", "Comparative sign": "=", "Measured value": 0.000329}
{"Variant designation": "A14C G60C", "Measure name": "self-cleavage kobs at 2500 uM GlcN6P", "Measurement unit": "s⁻¹", "Comparative sign": "<", "Measured value": "1e-05"}
{"Variant designation": "U31C G51A", "Measure name": "self-cleavage kobs at 2500 uM GlcN6P", "Measurement unit": "s⁻¹", "Comparative sign": "<", "Measured value": "1e-05"}
{"Variant designation": "G38C U56A", "Measure name": "self-cleavage kobs at 2500 uM GlcN6P", "Measurement unit": "s⁻¹", "Comparative sign": "<", "Measured value": "1e-05"}
{"Variant designation": "G37A A53G", "Measure name": "self-cleavage kobs at 2500 uM GlcN6P", "Measurement unit": "s⁻¹", "Comparative sign": "=", "Measured value": 0.00163}
{"Variant designation": "C8U A42G A48C", "Measure name": "self-cleavage kobs at 2500 uM GlcN6P", "Measurement unit": "s⁻¹", "Comparative sign": "<", "Measured value": "1e-05"}
{"Variant designation": "G9A A36C G41U A64G C70U", "Measure name": "self-cleavage kobs at 2500 uM GlcN6P", "Measurement unit": "s⁻¹", "Comparative sign": "<", "Measured value": "1e-05"}
{"Variant designation": "A42G G43A", "Measure name": "self-cleavage kobs at 2500 uM GlcN6P", "Measurement unit": "s⁻¹", "Comparative sign": "=", "Measured value": "8.7e-05"}
{"Variant designation": "G32A G35C G44C U56G", "Measure name": "self-cleavage kobs at 2500 uM GlcN6P", "Measurement unit": "s⁻¹", "Comparative sign": "<", "Measured value": "1e-05"}
{"Variant designation": "A12C G29U", "Measure name": "self-cleavage kobs at 2500 uM GlcN6P", "Measurement unit": "s⁻¹", "Comparative sign": "=", "Measured value": 0.00483}
{"Variant designation": "C16G C58G", "Measure name": "self-cleavage kobs at 2500 uM GlcN6P", "Measurement unit": "s⁻¹", "Comparative sign": "=", "Measured value": "7.72e-05"}
{"Variant designation": "G37U G43C", "Measure name": "self-cleavage kobs at 2500 uM GlcN6P", "Measurement unit": "s⁻¹", "Comparative sign": "<", "Measured value": "1e-05"}
{"Variant designation": "G43C U47A", "Measure name": "self-cleavage kobs at 2500 uM GlcN6P", "Measurement unit": "s⁻¹", "Comparative sign": "<", "Measured value": "1e-05"}
{"Variant designation": "G32A U54A C68A", "Measure name": "self-cleavage kobs at 2500 uM GlcN6P", "Measurement unit": "s⁻¹", "Comparative sign": "=", "Measured value": 0.000108}
{"Variant designation": "U31G U54G", "Measure name": "self-cleavage kobs at 2500 uM GlcN6P", "Measurement unit": "s⁻¹", "Comparative sign": "=", "Measured value": 0.00445}
{"Variant designation": "U46G C50G C68G", "Measure name": "self-cleavage kobs at 2500 uM GlcN6P", "Measurement unit": "s⁻¹", "Comparative sign": "=", "Measured value": "4.12e-05"}
{"Variant designation": "A39U C71G", "Measure name": "self-cleavage kobs at 2500 uM GlcN6P", "Measurement unit": "s⁻¹", "Comparative sign": "=", "Measured value": 0.00066}
{"Variant designation": "A15C G66U C67G", "Measure name": "self-cleavage kobs at 2500 uM GlcN6P", "Measurement unit": "s⁻¹", "Comparative sign": "=", "Measured value": "4.27e-05"}
{"Variant designation": "A53C U56C", "Measure name": "self-cleavage kobs at 2500 uM GlcN6P", "Measurement unit": "s⁻¹", "Comparative sign": "=", "Measured value": 0.000121}
{"Variant designation": "A6G C16U G32C G41U C68U", "Measure name": "self-cleavage kobs at 2500 uM GlcN6P", "Measurement unit": "s⁻¹", "Comparative sign": "<", "Measured value": "1e-05"}
{"Variant designation": "U55C C70U", "Measure name": "self-cleavage kobs at 2500 uM GlcN6P", "Measurement unit": "s⁻¹", "Comparative sign": "=", "Measured value": 0.000413}
{"Variant designation": "G13U A15G", "Measure name": "self-cleavage kobs at 2500 uM GlcN6P", "Measurement unit": "s⁻¹", "Comparative sign": "=", "Measured value": 0.000584}
{"Variant designation": "A15C A42G", "Measure name": "self-cleavage kobs at 2500 uM GlcN6P", "Measurement unit": "s⁻¹", "Comparative sign": "=", "Measured value": 0.00411}
{"Variant designation": "A64U", "Measure name": "self-cleavage kobs at 2500 uM GlcN6P", "Measurement unit": "s⁻¹", "Comparative sign": "=", "Measured value": 0.000102}
{"Variant designation": "A14U A53U C71U", "Measure name": "self-cleavage kobs at 2500 uM GlcN6P", "Measurement unit": "s⁻¹", "Comparative sign": "=", "Measured value": 0.00145}
{"Variant designation": "A12G A39G", "Measure name": "self-cleavage kobs at 2500 uM GlcN6P", "Measurement unit": "s⁻¹", "Comparative sign": "=", "Measured value": 0.000622}
